Biological target: Small conductance calcium-activated potassium channel protein 3 (Rattus norvegicus, UniProt P70605)
Sequence (P70605 whole entry): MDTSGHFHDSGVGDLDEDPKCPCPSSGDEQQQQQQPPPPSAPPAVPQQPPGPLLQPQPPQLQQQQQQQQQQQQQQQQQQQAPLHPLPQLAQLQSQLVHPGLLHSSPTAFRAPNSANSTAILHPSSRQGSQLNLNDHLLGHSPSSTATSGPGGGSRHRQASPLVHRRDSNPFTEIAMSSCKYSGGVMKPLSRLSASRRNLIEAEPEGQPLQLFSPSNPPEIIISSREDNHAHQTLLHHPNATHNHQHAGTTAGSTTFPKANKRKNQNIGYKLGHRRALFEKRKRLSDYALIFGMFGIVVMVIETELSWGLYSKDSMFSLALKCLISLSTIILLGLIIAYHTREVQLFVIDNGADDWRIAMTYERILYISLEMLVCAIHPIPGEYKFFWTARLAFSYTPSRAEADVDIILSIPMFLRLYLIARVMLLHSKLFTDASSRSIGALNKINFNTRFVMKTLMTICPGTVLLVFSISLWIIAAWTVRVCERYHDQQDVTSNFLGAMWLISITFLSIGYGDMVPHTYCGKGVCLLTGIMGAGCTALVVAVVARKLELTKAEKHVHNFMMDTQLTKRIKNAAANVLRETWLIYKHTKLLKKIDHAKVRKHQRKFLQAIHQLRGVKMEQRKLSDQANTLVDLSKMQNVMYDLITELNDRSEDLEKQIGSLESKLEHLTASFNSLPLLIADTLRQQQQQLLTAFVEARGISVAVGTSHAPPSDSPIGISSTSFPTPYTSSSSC
Assay: Inhibition of KCa2.3 in Sprague-Dawley rat superior cervical ganglion neurons assessed as inhibition of afterhyperpolarization by electrophysiological assay
pIC50: −log10 of the molar value.
readout: pIC50

# example entries with known answers
{"compound structure": "O=[N+]([O-])c1ccc2c(c1)c1cc[n+]2Cc2cccc(c2)C[n+]2ccc(c3cc([N+](=O)[O-])ccc32)NCc2ccc(cc2)CN1", "pIC50": 8.29}
{"compound structure": "O=[N+]([O-])c1ccc2c(c1)c1cc[n+]2CCCCC[n+]2ccc(c3cc([N+](=O)[O-])ccc32)NCCCCCN1", "pIC50": 8.39}

[I] Oc1c2cc(I)cc1CNc1cc[n+](c3ccccc13)CCCCC[n+]1ccc(c3ccccc31)NC2
[II] CN1CCCCCN(C)c2cc[n+](c3ccccc23)CCCCC[n+]2ccc1c1ccccc12
Select the item whose pIC50 value is smaller, choosing between I and II . Answer by quoting the chosen item's label.
I

###

Molecular target: Small conductance calcium-activated potassium channel protein 3 (Rattus norvegicus)
Experiment: Inhibition of KCa2.3 in Sprague-Dawley rat superior cervical ganglion neurons assessed as inhibition of afterhyperpolarization by electrophysiological assay
pIC50: −log10 of the molar value.
readout: pIC50

{"compound structure": "Clc1ccc2c3cc[n+](c2c1)CCCCC[n+]1ccc(c2ccc(Cl)cc21)NCCCCCN3", "assay target": "Small conductance calcium-activated potassium channel protein 3 (Rattus norvegicus)", "pIC50": 8.59}

[A] FC(F)(F)Oc1ccc2c(c1)c1cc[n+]2Cc2cccc(c2)C[n+]2ccc(c3cc(OC(F)(F)F)ccc32)NCc2ccc(cc2)CN1
[B] c1ccc2c(c1)c1cc[n+]2Cc2ccc(cc2)C[n+]2ccc(c3ccccc32)NCCCCCN1
[C] c1ccc2c(c1)c1cc[n+]2CCSCC[n+]2ccc(c3ccccc32)NCCSCCN1
[D] Nc1ccc2c(c1)c1cc[n+]2CCCCC[n+]2ccc(c3cc(N)ccc32)NCCCCCN1
Endpoint returns the given compounds ordered by ascending pIC50. Field: ranking. Enter the labels in the order requested.
C, A, B, D
(C: 7.38, A: 7.82, B: 8.36, D: 8.64)

###

Target: Small conductance calcium-activated potassium channel protein 3 (Rattus norvegicus)
Experiment: Inhibition of KCa2.3 in Sprague-Dawley rat superior cervical ganglion neurons assessed as inhibition of afterhyperpolarization by electrophysiological assay
pIC50: −log10 of the molar value.
readout: pIC50

# example entries with known answers
{"compound structure": "Oc1c2cccc1CNc1cc[n+](c3ccccc13)CCCCC[n+]1ccc(c3ccccc31)NC2", "pIC50": 6.40}
{"compound structure": "COc1ccc2c3cc[n+](c2c1)Cc1cccc(c1)C[n+]1ccc(c2ccc(OC)cc21)NCc1ccc(cc1)CN3", "pIC50": 8.01}
{"compound structure": "Fc1ccc2c(c1)c1cc[n+]2CCCCC[n+]2ccc(c3cc(F)ccc32)NCCCCCN1", "pIC50": 8.39}

[P] CC1CC[n+]2ccc(c3ccccc32)NCCCCCNc2cc[n+](c3ccccc23)CC1
[Q] Clc1ccc2c3cc[n+](c2c1)Cc1cccc(c1)C[n+]1ccc(c2ccc(Cl)cc21)NCc1ccc(cc1)CN3
Select the item whose pIC50 value is smaller, choosing between P and Q . Answer by quoting the chosen item's label.
Q

[a] Nc1ccc2c(c1)c1cc[n+]2Cc2cccc(c2)C[n+]2ccc(c3cc(N)ccc32)NCc2ccc(cc2)CN1
[b] c1ccc2c(c1)c1cc[n+]2CCCCC[n+]2ccc(c3ccccc32)NCCOCCN1
[c] c1cc2cc(c1)CNc1cc[n+](c3ccccc13)CCCCC[n+]1ccc(c3ccccc31)NC2
Endpoint returns the given molecules ordered by ascending pIC50. Field: ranking. Enter the labels in the order requested.
c, b, a
(c: 7.48, b: 7.77, a: 8.43)

###

Target: Small conductance calcium-activated potassium channel protein 3 (Rattus norvegicus)
Assay: Inhibition of KCa2.3 in rat superior cervical ganglion neurons
readout: IC50 (nM)

[P] c1ccc2c(c1)c1cc[n+]2CCCCC[n+]2ccc(c3ccccc32)NCc2ccc(cc2)CN1
[Q] c1cc2cc(c1)CNc1cc[n+](c3ccccc13)CCCCC[n+]1ccc(c3ccccc31)NC2
Select the item whose IC50 value is smaller, choosing between P and Q . Answer by quoting the chosen item's label.
Q

###

Molecular target: Small conductance calcium-activated potassium channel protein 3 (Rattus norvegicus)
Test: Inhibition of KCa2.3 in Sprague-Dawley rat superior cervical ganglion neurons assessed as inhibition of afterhyperpolarization by electrophysiological assay relative to UCL1848
readout: EMR

# example entries with known answers
{"compound structure": "Fc1ccc2c(c1)c1cc[n+]2Cc2cccc(c2)C[n+]2ccc(c3cc(F)ccc32)NCc2ccc(cc2)CN1", "reported measurement": 6.9}
{"compound structure": "FC(F)(F)c1ccc2c(c1)c1cc[n+]2CCCCC[n+]2ccc(c3cc(C(F)(F)F)ccc32)NCCCCCN1", "reported measurement": 1.1}
{"compound structure": "Fc1ccc2c(c1)c1cc[n+]2CCCCC[n+]2ccc(c3cc(F)ccc32)NCCCCCN1", "reported measurement": 2.1}
{"compound structure": "c1ccc2c(c1)c1cc[n+]2Cc2ccc(cc2)C[n+]2ccc(c3ccccc32)NCCCCCN1", "reported measurement": 1.8}
{"compound structure": "c1cc2cc(c1)C[n+]1ccc(c3ccccc31)NCc1ccc(cc1)CNc1cc[n+](c3ccccc13)C2", "reported measurement": 1.44}

[1] FC(F)(F)c1ccc2c3cc[n+](c2c1)CCCCC[n+]1ccc(c2ccc(C(F)(F)F)cc21)NCCCCCN3
[2] C1=C\C[n+]2ccc(c3ccccc32)NCCCCCNc2cc[n+](c3ccccc23)C/1
Hi team, can someone confirm which has the larger EMR: 1 or 2 ? Thanks. Answer by quoting the chosen item's label.
2

###

Biological target: Small conductance calcium-activated potassium channel protein 3 (Rattus norvegicus, UniProt P70605)
Experiment: Inhibition of KCa2.3 in Sprague-Dawley rat superior cervical ganglion neurons assessed as inhibition of afterhyperpolarization by electrophysiological assay
readout: IC50 (nM)

# example entries with known answers
{"molecule": "COc1ccc2c3cc[n+](c2c1)CCCCC[n+]1ccc(c2ccc(OC)cc21)NCCCCCN3", "units label": "nM", "reported measurement": 3}
{"molecule": "c1ccc2c(c1)c1cc[n+]2CCC2(CC[n+]3ccc(c4ccccc43)NCCC3(CCN1)OCCO3)OCCO2", "units label": "nM", "reported measurement": 300}

[P] Clc1cc(Cl)c2c3cc[n+](c2c1)CCCCC[n+]1ccc(c2c(Cl)cc(Cl)cc21)NCCCCCN3
[Q] c1ccc2c(c1)c1cc[n+]2CCCCC[n+]2ccc(c3ccccc32)NCCC2(CCN1)OCCO2
Hi team, can someone confirm which has the larger IC50: P or Q ? Thanks. Answer by quoting the chosen item's label.
Q

[a] COc1ccc2c(c1)c1cc[n+]2Cc2cccc(c2)C[n+]2ccc(c3cc(OC)ccc32)NCc2ccc(cc2)CN1
[b] c1ccc2c(c1)c1cc[n+]2CCOCC[n+]2ccc(c3ccccc32)NCCCCCN1
Select the item whose IC50 value is smaller, choosing between a and b . Answer by quoting the chosen item's label.
b
(b: 4.8 nM, a: 15 nM)

[I] c1ccc2c(c1)c1cc[n+]2CCOCC[n+]2ccc(c3ccccc32)NCCOCCN1
[II] c1cc2cc(c1)C[n+]1ccc(c3ccccc31)NCC1CCC(CC1)CNc1cc[n+](c3ccccc13)C2
Hi team, can someone confirm which has the larger IC50: I or II ? Thanks. Answer by quoting the chosen item's label.
I

[P] CC1CCNc2cc[n+](c3ccccc23)CCC(C)CC[n+]2ccc(c3ccccc32)NCC1 (centres undefined)
[Q] C1=C\C[n+]2ccc(c3ccccc32)NCCCCCNc2cc[n+](c3ccccc23)C/1
Select the item whose IC50 value is smaller, choosing between P and Q . Answer by quoting the chosen item's label.
P

###

Biological target: Small conductance calcium-activated potassium channel protein 3 (Rattus norvegicus) (UniProt P70605)
Test: Inhibition of KCa2.3 in Sprague-Dawley rat superior cervical ganglion neurons assessed as inhibition of afterhyperpolarization by electrophysiological assay relative to UCL1848
readout: EMR

{"compound structure": "CC1CCNc2cc[n+](c3ccccc23)CCCCC[n+]2ccc(c3ccccc32)NCC1", "reported measurement": 2.6}

[P] c1cc2cc(c1)CNc1cc[n+](c3ccccc13)CCCCC[n+]1ccc(c3ccccc31)NC2
[Q] Cc1ccc2c(c1)c1cc[n+]2Cc2cccc(c2)C[n+]2ccc(c3cc(C)ccc32)NCc2ccc(cc2)CN1
[R] Nc1ccc2c(c1)c1cc[n+]2CCCCC[n+]2ccc(c3cc(N)ccc32)NCCCCCN1
[S] Cc1ccc2c(c1)c1cc[n+]2CCCCC[n+]2ccc(c3cc(C)ccc32)NCCCCCN1
Endpoint returns the given compounds ordered by ascending EMR. Field: ranking. Enter the labels in the order requested.
R, S, Q, P

[A] COc1ccc2c(c1)c1cc[n+]2Cc2cccc(c2)C[n+]2ccc(c3cc(OC)ccc32)NCc2ccc(cc2)CN1
[B] c1ccc2c(c1)c1cc[n+]2CCSCC[n+]2ccc(c3ccccc32)NCCCCCN1
Hi team, can someone confirm which has the larger EMR: A or B ? Thanks. Answer by quoting the chosen item's label.
A
(A: 7.4, B: 1.2)
